TARGET OR SYSTEM: T1, hErbB3.hFc (soluble dimeric human ErbB3 extracellular domain fused to human Fc) (human)
T1 construct: called dimeric
T1 sequence (chain, as listed by the source limits assumed): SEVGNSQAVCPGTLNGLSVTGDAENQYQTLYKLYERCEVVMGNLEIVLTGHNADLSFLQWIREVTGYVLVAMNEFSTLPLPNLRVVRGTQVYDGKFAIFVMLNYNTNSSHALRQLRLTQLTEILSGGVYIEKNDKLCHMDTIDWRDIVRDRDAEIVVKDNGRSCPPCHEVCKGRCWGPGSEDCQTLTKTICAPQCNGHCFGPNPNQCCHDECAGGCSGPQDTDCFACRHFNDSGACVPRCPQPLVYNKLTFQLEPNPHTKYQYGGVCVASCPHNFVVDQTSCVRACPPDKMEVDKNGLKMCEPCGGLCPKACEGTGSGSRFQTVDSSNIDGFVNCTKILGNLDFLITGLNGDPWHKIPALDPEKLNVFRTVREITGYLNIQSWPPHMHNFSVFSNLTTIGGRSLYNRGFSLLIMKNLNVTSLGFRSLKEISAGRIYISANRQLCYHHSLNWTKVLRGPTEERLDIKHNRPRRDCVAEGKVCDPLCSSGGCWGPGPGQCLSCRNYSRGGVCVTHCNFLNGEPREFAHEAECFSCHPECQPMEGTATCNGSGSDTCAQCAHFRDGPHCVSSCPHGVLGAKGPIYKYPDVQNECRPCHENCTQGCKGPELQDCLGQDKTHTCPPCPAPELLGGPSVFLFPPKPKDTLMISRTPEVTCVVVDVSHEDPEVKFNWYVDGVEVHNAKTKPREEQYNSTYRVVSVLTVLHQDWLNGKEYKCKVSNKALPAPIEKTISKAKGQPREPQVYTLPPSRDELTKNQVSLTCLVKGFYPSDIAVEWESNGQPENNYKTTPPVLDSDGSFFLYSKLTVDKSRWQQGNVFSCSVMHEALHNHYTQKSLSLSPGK
PROTOCOL: blocking ELISA: antibody + 50 pM ErbB3-hFc on neuregulin1b-coated plate
Measured pIC50, listed per entry for reference.
// scale note: pIC50 = -log10(conc_M); give the bare number

Examples from the recorded data:
BINDER	PROPERTY	READOUT VALUE
H2M1829N (antibody, V domains shown, Hybridoma chimeric antibody: human variable domains, mouse IgG2 Fc (H2M prefix)) VH: EVQLVESGGGVVRPGGSLRLSCVASGFTFDDYGMSWVRQAPGKGLECVSGINWNGGSTDYADSVKGRFTISRDNAKNSLYLQMNSLRAEDTALYHCARDGGDWDYFDLWGRGTLVTVSS VL: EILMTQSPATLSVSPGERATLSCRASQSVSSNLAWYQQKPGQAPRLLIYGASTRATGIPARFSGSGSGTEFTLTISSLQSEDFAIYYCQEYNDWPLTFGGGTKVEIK	pIC50	10.62
H1M1828N (antibody, V domains shown, Hybridoma chimeric antibody: human variable domains, mouse constant domains (H1M prefix, mouse Fc)) VH: EVQLVESGGGLVQPGRSLRLSCAASGFTFDDYAMYWVRQAPGKGLEWVSGISWNSGSIGYADSVKGRFTISRDNAKNSLYLQMDSLRAEDTALYYCARDMMEVDLYGMDVWGQGTTVTVSS VL: DIQMTQSPSSVSASVGDRVTITCRASQDISSWLAWYQQKPGTAPKFLIYETSSLQSGVPSRFSGSGSGTDFILTISSLQPEDFATYYCQQTDSFPHTFGQGTKLEIR	pIC50	10.52

# input So what does the record say about pIC50 for H1M1940N (antibody, V domains shown, Hybridoma chimeric antibody: human variable domains, mouse constant domains (H1M prefix, mouse Fc)) VH: QVQVVESGGGVVQPGRSLRLSCAASGFTFSDYGMHWVRQAPGKGLEWVAIISYDGSNKYYADSVKGRFTVSRDNSKNTLYLQLDSLRPEDAAVFYCAREGAFNLDYYAMDVWGQGTTVTVSS VL: AIQMTQSPSSLSASVGDRVTITCRASQDIRNDLGWYQQKPGKAPNLLIYAASSLQSGVPSRFSGSGSGTDFTLTISSLQPEDFATYYCLQDSNYPLTFGGGTKVEIK ?
# output 9.28
